ASSAY OVERVIEW: recombinant UMI read abundance after kanamycin selection (control-corrected) (log10(CPM+1)); higher = more efficient recombination; extreme values may be limits of the assay; sequences stand for … in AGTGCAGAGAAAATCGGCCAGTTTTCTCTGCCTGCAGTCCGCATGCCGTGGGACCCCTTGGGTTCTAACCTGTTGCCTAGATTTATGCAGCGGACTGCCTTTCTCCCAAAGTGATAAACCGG…AGGTTGGTTTCACT; site = the 11-nt donor
MEASUREMENT LABEL: recombinant UMI read abundance (log10)

Consider the reported recombinant UMI read abundance (log10) for these sequences:
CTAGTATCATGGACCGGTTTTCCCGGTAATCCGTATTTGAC (site CTAGTATCTGT)	2.66
CGAGGGCCATGGACCGGTTTTCCCGGTAATCCGTATTTGGG (site CGAGGACCTCC)	0.0191
CTGGAATCATGGACCGGTTTTCCCGGTAATCCGTATTTGCA (site CTGGAAGCTTG)	0
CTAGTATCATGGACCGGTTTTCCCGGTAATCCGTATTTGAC (site CTGGTAGCTGT)	0

Prompt line: Need recombinant UMI read abundance (log10) of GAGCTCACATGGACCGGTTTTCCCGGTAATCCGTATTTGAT (site GAGCGCACTAT) , thanks.
Response line: 0

====

ASSAY OVERVIEW: recombinant barcode read abundance after kanamycin selection (control-corrected) (log10(CPM+1)); higher = more efficient recombination; sequences stand for … in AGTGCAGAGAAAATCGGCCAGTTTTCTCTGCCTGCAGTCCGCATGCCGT…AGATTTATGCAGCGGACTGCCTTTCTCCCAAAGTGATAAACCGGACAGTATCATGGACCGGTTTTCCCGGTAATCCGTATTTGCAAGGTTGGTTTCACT; site = the 11-nt target
For each of the sequences below, state its recombinant barcode read abundance (log10).
Numbers only.

Consider the reported recombinant barcode read abundance (log10) for these sequences:
GAGCGCTCTTGGGTTCTAACCTGTTGCTC (site GAGCGCTCTGA)	1.18
GCCACGCCTTGGGTTCTAACCTGTTGCAG (site GCCGCGCCTCT)	0.053
TACCCGCCTTGGGTTCTAACCTGTTGCTA (site TACCCTACTTA)	0.066
TCGCGGACTTGGGTTCTAACCTGTTGCCT (site TCCCGGACTAG)	0.243
TCCTCTCCTTGGGTTCTAACCTGTTGCTT (site TCCTCTCCTAA)	0.118

# batch size: 6; output recombinant barcode read abundance (log10) per entry
1. CAATCCTCTTGGGTTCTAACCTGTTGCCT (site GAATCCTCTAG)
2. ATACCTCCTTGGGTTCTAACCTGTTGCCT (site ATACCTCCTAG)
3. ATAGGGACTTGGGTTCTAACCTGTTGCCT (site GTAGCGACTAG)
4. GCGTCTACTTGGGTTCTAACCTGTTGCCT (site GCGTCTACTAG)
5. CGTGGAGCTTGGGTTCTAACCTGTTGCCA (site CGTCTAGCTTG)
6. TCTACTTCTTGGGTTCTAACCTGTTGCCT (site TCTACGTCTAG)

Response line:
1. 0.0242
2. 1.69
3. 0.177
4. 0.169
5. 0.136
6. 0.0937

# batch size: 6; output recombinant barcode read abundance (log10) per entry
1. AGAAAGTCTTGGGTTCTAACCTGTTGCGT (site AGAAAGTCTAC)
2. CGTCAGCCTTGGGTTCTAACCTGTTGCCT (site CGTCAACCTAG)
3. TCCCATGCTTGGGTTCTAACCTGTTGCCT (site TCCCATGCTAG)
4. CTCGTAACTTGGGTTCTAACCTGTTGCCT (site CTCGTGACTAG)
5. ACCCTTACTTGGGTTCTAACCTGTTGCCT (site ACCCTTACTAG)
6. CCAAGCACTTGGGTTCTAACCTGTTGCCT (site CCAAGCCCTAG)

Response line:
[2.36, 0.0431, 1.17, 0.123, 1.07, 0.138]
